- experimentalSystem: Adenosine receptor A2a (Homo sapiens)
- protocolNotes: Displacement of [3H]ZM241385 from recombinant human A2A adenosine receptor expressed in HEK293 cell membranes at 1 uM measured after 60 mins by liquid scintillation counting method relative to control
- studyConditions: Membrane
propertyMeasured: inhibition (%)
State just the number; it will be interpreted in %.

Worked cases, inhibition given:
# moleculeSmiles, experimentalSystem, inhibition / %
measured = [
    ("COc1ccc(-c2nc(SCC(=O)c3sc(-c4ccccc4)nc3C)[nH]c(=O)c2C#N)cc1OC", "Adenosine receptor A2a (Homo sapiens)", 12),
    ("COc1ccc(-c2nc(SCC(=O)c3sc(-c4ccccc4)nc3C)nc(N)c2C#N)cc1", "Adenosine receptor A2a (Homo sapiens)", 0.8),
    ("COc1ccc(-c2nc(C)c(C(=O)CSc3nc(N)c(C#N)c(-c4ccc(Cl)cc4)n3)s2)cc1", "Adenosine receptor A2a (Homo sapiens)", -7.1),
    ("COc1ccc(-c2nc(C)c(C(=O)CSc3nc(N)c(C#N)c(-c4ccccc4)n3)s2)cc1", "Adenosine receptor A2a (Homo sapiens)", -2.6),
    ("Cc1nc(-c2ccccc2)sc1C(=O)CSc1nc(N)c(C#N)c(-c2ccc(Cl)cc2)n1", "Adenosine receptor A2a (Homo sapiens)", -9.9),
    ("COc1ccc(-c2nc(C)c(C(=O)CSc3nc(-c4ccc(OC)c(OC)c4)c(C#N)c(=O)[nH]3)s2)cc1", "Adenosine receptor A2a (Homo sapiens)", 8.5),
]

Output inhibition of "Cc1nc(-c2ccc(Cl)cc2)sc1C(=O)CSc1nc(N)c(C#N)c(-c2ccccc2)n1"
-1.4

Output inhibition of "Cc1nc(-c2ccc(Cl)cc2)sc1C(=O)CSc1nc(N)c(C#N)c(-c2ccc(Cl)cc2)n1"
1.8

Output inhibition of "Cc1nc(-c2ccccc2)sc1C(=O)CSc1nc(N)c(C#N)c(-c2ccccc2)n1"
6.5
